Cited source: patent US20250066503A1

- testSystem: T1, human GPC3 (human, UniProt P51654 25-563)
- T1 construct: range 25-563; soluble analyte; also called soluble human GPC3; glypican 3
- T1 sequence (P51654 25-563 limits assumed): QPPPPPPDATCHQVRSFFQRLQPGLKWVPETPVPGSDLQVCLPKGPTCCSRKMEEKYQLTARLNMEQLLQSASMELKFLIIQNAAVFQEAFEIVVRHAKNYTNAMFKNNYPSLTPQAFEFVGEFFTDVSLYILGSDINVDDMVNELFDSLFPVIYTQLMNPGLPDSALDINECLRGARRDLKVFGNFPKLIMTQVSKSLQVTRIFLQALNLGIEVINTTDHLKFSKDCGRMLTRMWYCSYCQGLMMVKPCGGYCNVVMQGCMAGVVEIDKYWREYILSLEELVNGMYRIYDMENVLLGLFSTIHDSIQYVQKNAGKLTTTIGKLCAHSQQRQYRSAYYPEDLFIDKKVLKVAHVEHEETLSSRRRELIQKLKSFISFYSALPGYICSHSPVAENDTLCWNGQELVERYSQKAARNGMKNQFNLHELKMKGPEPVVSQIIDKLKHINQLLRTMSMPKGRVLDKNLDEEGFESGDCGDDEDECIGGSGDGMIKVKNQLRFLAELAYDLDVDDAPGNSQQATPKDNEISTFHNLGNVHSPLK
- testDescription: SPR
Answer each item with its documented pKd.
Answers are plain numbers, as −log10 of the molar value.

List pKd for every entry below, keeping the order given.
1. H0610-G1dh/none-Hi-Kn010G3/L0243-k0 (antibody, V domains shown, one-arm) VH: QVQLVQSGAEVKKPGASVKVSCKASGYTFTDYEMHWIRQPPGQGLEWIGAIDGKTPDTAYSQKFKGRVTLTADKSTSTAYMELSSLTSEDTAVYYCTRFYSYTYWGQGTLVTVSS VL: DIVMTQSPLSLPVTPGEPASISCRSSEPPVHSNRNTYLHWYQQKPGQAPRLLIYKVSNRFRGVPDRFSGSGSGTDFTLKISRVEAEDVGVYYCGQGTQVPYTFGQGTKLEIK
2. H0610-G1dh/none-Hi-Kn010G3/L0013-k0 (antibody, V domains shown, one-arm) VH: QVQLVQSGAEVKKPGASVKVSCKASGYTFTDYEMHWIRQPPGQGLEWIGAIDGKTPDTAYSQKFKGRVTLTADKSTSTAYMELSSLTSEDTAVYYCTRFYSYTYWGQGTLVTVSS VL: DIVMTQSPLSLPVTPGEPASISCRSSQSIVHSNRNTYLHWYQQKPGQAPRLLIYKVSNRFSGVPDRFSGSGSGTDFTLKISRVEAEDVGVYYCGQGTQVPYTFGQGTKLEIK
3. H0610-G1dh/none-Hi-Kn010G3/L0173-k0 (antibody, V domains shown, one-arm) VH: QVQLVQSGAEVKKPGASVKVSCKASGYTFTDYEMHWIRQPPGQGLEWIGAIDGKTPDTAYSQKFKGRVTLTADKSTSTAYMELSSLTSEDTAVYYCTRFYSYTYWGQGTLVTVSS VL: DIVMTQSPLSLPVTPGEPASISCRSSQSLVHSNRNTYLHWYQQKPGQAPRLLIYKVSNRFSGVPDRFSGSGSGTDFTLKISRVEAEDVGVYYCGQGTQFPYTFGQGTKLEIK

Result:
1. 9.19
2. 8.47
3. 8.55

List pKd for every entry below, keeping the order given.
1. H0610-G1dh/none-Hi-Kn010G3/L0082-k0 (antibody, V domains shown, one-arm) VH: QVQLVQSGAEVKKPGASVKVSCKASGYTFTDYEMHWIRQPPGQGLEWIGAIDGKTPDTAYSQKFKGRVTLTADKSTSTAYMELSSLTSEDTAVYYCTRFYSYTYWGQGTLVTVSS VL: DIVMTQSPLSLPVTPGEPASISCRSSQSLVHSNRNTYVHWYQQKPGQAPRLLIYKVSNRFSGVPDRFSGSGSGTDFTLKISRVEAEDVGVYYCGQGTQVPYTFGQGTKLEIK
2. GCH055-G1dh/none-Hi-Kn010G3/L0200-k0 (antibody, V domains shown, one-arm) VH: QVQLVQSGAEVKKPGASVTVSCKASGYTFTDYEMHWIRQPPGEGLEWIGAIDGETPDTAYSDKFKGRVTLTADKSTSTAYMELSSLTSEDTAVYYCTRFYSYTYWGQGTLVTVSS VL: DIVMTQSPLSLPVTPGEPASISCRPSQSPVHSNRNTYLHWYQQKPGQAPRLLIYKVSNRFSGVPDRFSGSGSGTDFTLKISRVEAEDVGVYYCGQGTQVPYTFGQGTKLEIK

Result:
1: 8.46; 2: 8.95
